- assayed.target: Trypsin (Homo sapiens) (UniProt P07477+P07478+P35030)
- test: Inhibition of trypsin (unknown origin) using bovine serum albumin as substrate at 1 uM incubated for 20 min prior to substrate addition measured after 25 min by Lowry method
- Assay type: protein assay
reported.endpoint: inhibition (%)
Answer format: numeric, % implied, no suffix.

Send back Trypsin (Homo sapiens) (UniProt P07477+P07478+P35030) inhibition of `COc1cc(OC)c(/C=C/C(=O)c2cccc(NC(=O)c3cccc(Cl)c3)c2)c(OC)c1Br` only.
78.1

Provide Trypsin (Homo sapiens) (UniProt P07477+P07478+P35030) inhibition reading for `COc1cc(OC)c(/C=C/C(=O)c2cccc(NC(=O)c3ccc(F)cc3)c2)c(OC)c1Br` .
72.9

Quote Trypsin (Homo sapiens) (UniProt P07477+P07478+P35030) inhibition for entry `O=C(O)c1ccccc1O` .
85

Look up Trypsin (Homo sapiens) (UniProt P07477+P07478+P35030) data: inhibition of `COc1cc(OC)c(/C=C/C(=O)c2cccc(NC(=O)c3ccccc3)c2)c(OC)c1Br` , then report it.
58.1

Fill: inhibition (Trypsin (Homo sapiens) (UniProt P07477+P07478+P35030)) for this molecule `COc1cc(OC)c(/C=C/C(=O)c2cccc(NC(=O)c3ccc(C(C)(C)C)cc3)c2)c(OC)c1Br`
69.6

Fill in: inhibition on Trypsin (Homo sapiens) (UniProt P07477+P07478+P35030), entry `COc1cc(OC)c(/C=C/C(=O)c2cccc(NC(=O)c3ccccc3F)c2)c(OC)c1Br`
64.8

Output reported inhibition of the molecule `COc1cc(OC)c(/C=C/C(=O)c2cccc(NC(=O)c3cccs3)c2)c(OC)c1Br` on Trypsin (Homo sapiens) (UniProt P07477+P07478+P35030).
41.4

Quote Trypsin (Homo sapiens) (UniProt P07477+P07478+P35030) inhibition for entry `COc1ccc(C(=O)Nc2cccc(C(=O)/C=C/c3c(OC)cc(OC)c(Br)c3OC)c2)cc1` .
39.6

Tell me inhibition of `COc1cc(OC)c(/C=C/C(=O)c2cccc(NC(=O)c3ccccc3C(F)(F)F)c2)c(OC)c1Br` when tested on Trypsin (Homo sapiens) (UniProt P07477+P07478+P35030).
68.4

###

- test: Cytotoxicity against Homo sapiens (human) […] cells at 10 uM
- Format: cell-based
reported.endpoint: Activity (%)
The reply should be a number in %, with the unit left off.

Please indicate Activity recorded for `COc1cc(OC)c(/C=C/C(=O)c2cccc(NC(=O)c3ccccc3C)c2)c(OC)c1Br`
54

Read off the recorded Activity for `COc1cc(OC)c(/C=C/C(=O)c2cccc(NC(=O)c3ccccc3)c2)c(OC)c1Br`
65

Respond only with Activity recorded for `COc1cc(OC)c(/C=C/C(=O)c2cccc(NC(=O)c3cccc(C(F)(F)F)c3)c2)c(OC)c1Br`
65

Supply recorded Activity for `COc1ccc(C(=O)Nc2cccc(C(=O)/C=C/c3c(OC)cc(OC)c(Br)c3OC)c2)cc1` here.
65

Determine its reported Activity: `COc1cc(OC)c(/C=C/C(=O)c2cccc(NC(=O)c3cccc(Cl)c3)c2)c(OC)c1Br`
25

Indicate its recorded Activity; the compound in question is `COc1cc(OC)c(/C=C/C(=O)c2cccc(NC(=O)c3ccccc3F)c2)c(OC)c1Br`
56

Item `COc1cc(OC)c(/C=C/C(=O)c2cccc(NC(=O)c3cccc(F)c3)c2)c(OC)c1Br` : provide Activity
51

Give me measured Activity, please, for this compound: `COc1cc(OC)c(/C=C/C(=O)c2cccc(NC(=O)c3cccc(C)c3)c2)c(OC)c1Br`
56

###

- assayed.target: Prostaglandin G/H synthase 2 (Ovis aries) (UniProt P79208)
- Sequence (whole entry): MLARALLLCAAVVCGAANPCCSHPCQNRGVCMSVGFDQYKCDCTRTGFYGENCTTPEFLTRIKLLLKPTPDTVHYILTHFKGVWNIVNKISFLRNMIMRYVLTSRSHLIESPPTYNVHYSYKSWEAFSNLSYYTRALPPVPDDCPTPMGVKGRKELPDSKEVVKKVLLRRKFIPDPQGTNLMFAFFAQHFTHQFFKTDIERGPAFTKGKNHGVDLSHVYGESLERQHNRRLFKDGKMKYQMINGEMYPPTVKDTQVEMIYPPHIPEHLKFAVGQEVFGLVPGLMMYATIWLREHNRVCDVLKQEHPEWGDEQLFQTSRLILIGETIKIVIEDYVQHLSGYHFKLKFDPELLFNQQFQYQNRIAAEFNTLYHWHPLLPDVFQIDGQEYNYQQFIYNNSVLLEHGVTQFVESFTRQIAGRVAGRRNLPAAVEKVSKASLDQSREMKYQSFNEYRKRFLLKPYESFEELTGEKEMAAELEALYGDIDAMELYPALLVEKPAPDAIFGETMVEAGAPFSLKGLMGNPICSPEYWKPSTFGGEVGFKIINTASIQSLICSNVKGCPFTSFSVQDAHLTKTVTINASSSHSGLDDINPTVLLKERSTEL
- test: Inhibition of Ovis aries (sheep) COX2 at 1 uM after 5 min by colorimetric analysis
For each record, write down the corresponding inhibition.
Please report the result as a number followed by the unit.

Provide only the value of recorded inhibition for `COc1cc(OC)c(/C=C/C(=O)c2cccc(NC(=O)c3ccccc3)c2)c(OC)c1Br`
65.7%

Annotate the compound `CC(=O)Oc1ccccc1C(=O)O` with its measured inhibition.
36.9%

Specify inhibition for `COc1cc(OC)c(/C=C/C(=O)c2cccc(NC(=O)c3cccs3)c2)c(OC)c1Br` and stop.
55.4%

Answer with the recorded inhibition of `COc1cc(OC)c(/C=C/C(=O)c2cccc(NC(=O)c3cccc(C)c3)c2)c(OC)c1Br` only.
48.2%

Tell me measured inhibition for `COc1cc(OC)c(/C=C/C(=O)c2cccc(NC(=O)c3cccc(F)c3)c2)c(OC)c1Br` please.
82.5%

Read off the recorded inhibition for `COc1cc(OC)c(/C=C/C(=O)c2cccc(NC(=O)c3cccc(Br)c3)c2)c(OC)c1Br`
88.4%

// fetch inhibition given entry `COc1cc(OC)c(/C=C/C(=O)c2cccc(NC(=O)c3cccc(Cl)c3)c2)c(OC)c1Br`
86.5%

Identify the reported inhibition for the following entry. `COc1cc(OC)c(/C=C/C(=O)c2cccc(NC(=O)c3ccccc3F)c2)c(OC)c1Br`
79.3%

For the compound `COc1cc(OC)c(/C=C/C(=O)c2cccc(NC(=O)c3ccccc3C)c2)c(OC)c1Br` , give its reported inhibition.
43.7%

In one line, give reported inhibition of the entry `COc1cc(OC)c(/C=C/C(=O)c2cccc(NC(=O)c3ccc(C(C)(C)C)cc3)c2)c(OC)c1Br` .
85.8%

Return value of inhibition for input `COc1cc(OC)c(/C=C/C(=O)c2cccc(NC(=O)c3ccccc3C(F)(F)F)c2)c(OC)c1Br` , no commentary.
87.9%

Find the measured inhibition of `COc1cc(OC)c(/C=C/C(=O)c2cccc(NC(=O)c3ccc(F)cc3)c2)c(OC)c1Br` and report it.
83.3%

Tell me inhibition reported for `COc1ccc(C(=O)Nc2cccc(C(=O)/C=C/c3c(OC)cc(OC)c(Br)c3OC)c2)cc1`
38%

Quick one: give measured inhibition for `COc1cc(OC)c(/C=C/C(=O)c2cccc(NC(=O)c3cccc(C(F)(F)F)c3)c2)c(OC)c1Br`
89.2%

###

Exercise: for every item that follows, state its recorded inhibition at 10 µM.
- Tested on: THP-1
- test: Anti-inflammatory activity in Homo sapiens (human) THP1 cells assessed as inhibition of LPS-induced TNFalpha production at 10 uM incubated for 30 min prior to LPS-challenge measured after 24 hr by ELISA
- Format: functional
Respond numerically; units are % and should not be typed.

Indicate its recorded inhibition at 10 µM; the compound in question is `COc1cc(OC)c(/C=C/C(=O)c2cccc(NC(=O)c3cccc(C(F)(F)F)c3)c2)c(OC)c1Br`
85

Specify inhibition at 10 µM for `COc1cc(OC)c(/C=C/C(=O)c2cccc(NC(=O)c3cccc(C)c3)c2)c(OC)c1Br` and stop.
87

Determine its reported inhibition at 10 µM: `COc1cc(OC)c(/C=C/C(=O)c2cccc(NC(=O)c3ccccc3)c2)c(OC)c1Br`
91

###

- assayed.target: Trypsin (Homo sapiens) (UniProt P07477+P07478+P35030)
- test: Inhibition of trypsin (unknown origin) using bovine serum albumin as substrate at 1 uM incubated for 20 min prior to substrate addition measured after 25 min by Lowry method
- Type: protein assay
reported.endpoint: inhibition (%)
Give the number; % is assumed, so skip it.

Report value: inhibition, system: Trypsin (Homo sapiens) (UniProt P07477+P07478+P35030), compound: `COc1cc(OC)c(/C=C/C(=O)c2cccc(NC(=O)c3cccc(Br)c3)c2)c(OC)c1Br`
66.5

Please report inhibition with Trypsin (Homo sapiens) (UniProt P07477+P07478+P35030) for item `COc1cc(OC)c(/C=C/C(=O)c2cccc(NC(=O)c3cccc(F)c3)c2)c(OC)c1Br` .
63.5

Quote inhibition with test system Trypsin (Homo sapiens) (UniProt P07477+P07478+P35030) for `COc1cc(OC)c(/C=C/C(=O)c2cccc(NC(=O)c3ccccc3C)c2)c(OC)c1Br`
35.5

Report value only: inhibition, Trypsin (Homo sapiens) (UniProt P07477+P07478+P35030), `COc1cc(OC)c(/C=C/C(=O)c2cccc(NC(=O)c3cccc(C(F)(F)F)c3)c2)c(OC)c1Br`
65.5

Give inhibition; test system Trypsin (Homo sapiens) (UniProt P07477+P07478+P35030); compound `COc1cc(OC)c(/C=C/C(=O)c2cccc(NC(=O)c3cccc(C)c3)c2)c(OC)c1Br`
51.6
